- Method Notes: in vitro
- Applied Conditions: mouse, hepatocytes
Property: hepatocyte CLint at 1 μM (µL/min/1e6 cells)

INSERT INTO measurements (compound, observed_value) VALUES
  ('N#C[C@@H]1N[C@@H](CO)[C@H]1c1ccc(-c2ccccc2F)cc1 [BRD4592]', 47.2);

---

- Method Notes: in vitro
- Applied Conditions: mouse, microsomes
Property: microsomal CLint at 1 μM (µL/min/mg)

INSERT INTO measurements (compound, observed_value) VALUES
  ('N#C[C@@H]1N[C@@H](CO)[C@H]1c1ccc(-c2ccccc2F)cc1 [BRD4592]', 336);

Reference for the values: paper PMC6886523
